Could you please report measured growth for the items listed next?
Test system: NCI-H522 lung
Experiment: NCI-60 one-dose screen, 48 h (100 = growth as untreated, 0 = no growth, -100 = all killed)
Conditions: 10 µM unless noted
About 83,000 compounds went through this panel and 20% of them were active in at least one assay; those are over-represented in the sample as a whole. The source made the active and inactive calls. How the source made its calls: active means growth percent below 10; inactive means the rest.

What growth appears in the records for this compound with NCI-H522 lung? C=C(C)[C@@H]1CC[C@]2(C(=O)O)CC[C@]3(C)[C@H](CC[C@@H]4[C@@]5(C)CCC(NC(=O)c6cccc(OC(C)=O)c6OC(C)=O)C(C)(C)[C@@H]5CC[C@]43C)[C@@H]12 (stereo partly drawn)
-11.4% (active)

Next record, please: `COCCNC(=O)Nc1ccc2nc(-c3cccs3)c(-c3cccs3)nc2c1`
76.6% (inactive)

Next record, please: COC(=O)C1Cc2ccccc2CN1C(=O)c1ccc2c(c1)Cc1ccccc1-2 (stereo not drawn)
18.5% [50 µM] (inactive)

Next record, please: CCc1ncnc2c1ccn2C(C)c1ccc(OC)c(F)c1 (stereo not drawn)
43.3% (inactive)

Next record, please: `O=C1c2ccc3c4c5ccc(c24)C(=O)N1CCCOCCCCOCCCNCc1ccc(cc1)CNCCCOCCCCOCCCN(C3=O)C5=O`
-39.2% (active)

Next record, please: `CCOC(=O)c1cc2c(n1Cc1cc(OC)c(OC)c(OC)c1)-c1nc(N)sc1CCC2`
7.85% (active)

Next record, please: `Cc1ccc2c(n1)C(=O)C(Br)=C(CC(C)C)C2=O`
67.7% (inactive)

Next record, please: `CC(=O)Oc1ccc(N2C(=O)C(Cl)=C(Nc3cccc(C(F)(F)F)c3)C2=O)cc1`
86% (inactive)

Next record, please: `CCOC(=O)c1ccc(NC(=O)c2nc(-c3cc(OC)c(OC)c(OC)c3)n(-c3ccc(Cl)cc3)n2)cc1`
67.2% (inactive)

Next record, please: `Nc1nc(-c2ccc(Cl)cc2)nc2c1sc(=S)n2-c1ccccc1`
56.4% (inactive)

Next record, please: `O=C1C(Cl)=C(NCCCCCCNC2=C(Cl)C(=O)c3ccccc3C2=O)C(=O)c2ccccc21`
90.7% (inactive)

Next record, please: `NC(=O)c1cccc(-n2ccc3cc(NC(=O)c4ccc(N5CCOCC5)c(C(F)(F)F)c4)ccc32)n1`
58.9% (inactive)

Next record, please: `COc1cc(OC)c(/C=C/C(=O)c2c(OC)cccc2OC)c(OC)c1`
-22.7% (active)

Next record, please: `N#CC(C#N)N=Nc1ccc(Br)cc1`
7.59% (active)

Next record, please: `Cn1ccnc1C(=O)/C=C/c1ccc(C(=O)Nc2ccc(Cl)cc2)cc1`
-5.14% (active)

Next record, please: `Nc1ncnc2c1c(-c1cccc(Cl)c1)nn2CC(=O)N1CCOCC1`
102% (inactive)

Next record, please: `CCOC(=O)NC(C)C`
99.3% (inactive)

Next record, please: `CC(C)=CCC[C@](C)(O)[C@H]1CC[C@]2(C)[C@@H]1CC[C@@H]1[C@@]3(C)C/C(=C/c4ccco4)C(=O)C(C)(C)[C@@H]3CC[C@]12C`
102% (inactive)

Next record, please: `COC(=O)c1c(C)c2n(c1C)C(=O)C(c1ccccc1)=C2`
61.9% (inactive)

Next record, please: `O=C1Nc2ccccc2/C1=C/c1nc2ccccc2c(=O)[nH]1`
94.1% (inactive)

Next record, please: `N#C/C(=C\c1c(-c2ccccc2)[nH]c2ccccc12)C(N)=O`
83.3% (inactive)

Next record, please: CCC(C(=O)[C@@H](C)[C@@H](O)[C@H](C)[C@@H]1O[C@@H]([C@@H](CC)C(=O)ONC(=O)c2ccccc2)CC[C@@H]1C)[C@H]1O[C@]2(C=CC(=O)[C@]3(CC[C@@](C)([C@H]4CC[C@](O)(CC)[C@H](C)O4)O3)O2)[C@H](C)C[C@@H]1C (stereo partly drawn)
-25.9% (active)

Next record, please: Cc1ccc(C2=Nc3c(N)ncnc3NC(c3cccc(Nc4ccnc5cc(C(F)(F)F)ccc45)c3)C2)cc1 (stereo not drawn)
30.6% (inactive)
